# Tested on: HaCaT
# assay-info: Antiproliferative activity against human HaCaT cells after 48 hrs by Hoechst 33342 staining-based assay
# Type: cell-based
Give measured IC50 for each item. Keep answers brief.

Query :: Quick one: IC50 for `COc1ccccc1-c1ccc(N2CCN(C)CC2)nn1` ?
Result :: > 25 µM

Query :: Same question, `CCN(CC)c1ccc(-c2ccc(C(=O)O)cc2)nn1` this time
Result :: > 25 µM

Query :: Same question, `c1ccc2nc(-c3ccc(N4CCOCC4)nn3)ccc2c1` this time
Result :: > 25 µM

Query :: What about this compound? `COc1ccc(-c2ccc(N3CCOCC3)nn2)cc1`
Result :: > 25 µM

Query :: Field entry: `COc1cccc2c1C(=O)c1c(O)c3c(c(O)c1C2=O)C[C@@](O)(C(=O)CO)C[C@@H]3O[C@H]1C[C@H](N)[C@H](O)[C@H](C)O1`
Result :: 0.03 µM
